biological target: Torsin-1A-interacting protein 2 (Homo sapiens) (UniProt Q8NFQ8); assay: LULL1 binders on small-molecule microarray, primary screen, cell lysate, human LULL1 lysate, 635/667 nm fluorescence (AID 1092); conditions: hLULL1 lysate binding, 635 nm fluorescence, higher = more signal;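 note: probe is lysate of COS7 cells overexpressing human LULL1; score merges per-feature 667 nm fluorescence with signal-to-noise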
Sequence (Q8NFQ8 whole entry, looked up): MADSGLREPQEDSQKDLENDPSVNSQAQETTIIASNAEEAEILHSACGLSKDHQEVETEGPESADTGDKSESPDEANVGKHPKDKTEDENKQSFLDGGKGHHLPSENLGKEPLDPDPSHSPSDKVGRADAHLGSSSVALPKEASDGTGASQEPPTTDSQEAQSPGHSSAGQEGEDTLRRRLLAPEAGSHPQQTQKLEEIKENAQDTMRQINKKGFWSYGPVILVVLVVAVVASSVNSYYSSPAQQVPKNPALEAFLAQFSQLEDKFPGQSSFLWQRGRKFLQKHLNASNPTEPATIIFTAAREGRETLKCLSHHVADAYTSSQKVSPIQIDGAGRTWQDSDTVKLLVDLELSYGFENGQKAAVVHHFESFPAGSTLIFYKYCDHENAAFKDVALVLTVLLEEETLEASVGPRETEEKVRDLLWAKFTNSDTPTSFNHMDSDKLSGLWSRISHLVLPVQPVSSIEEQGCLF
The threshold is inclusive: composite z-score of exactly 0.7 counts as Criterion met; values below receive Criterion not met.

Study these solved cases before continuing.
Molecule	Class label
CO[C@H]1COC(=O)[C@@H](Cc2ccccc2)NC(=O)[C@@H](C)COC(=O)CC=C[C@@H]1C	Criterion not met
C=C(/C(=C/C[C@@H](OC(=O)c1ccncc1)c1ccc(CO)o1)c1cnc2ccccc2c1)C(C)C	Criterion met
C=CC(=O)O[C@@H](Cc1ccccc1)[C@H]1C2C=CCCC=C2CN1Cc1cccc(Cl)c1 (some centres not stated)	Criterion not met
C=CCC(OC(C)=O)[C@@H]1[C@@H](N(Cc2cc3ccccc3o2)C(=O)c2ccc(C)cc2)c2cc(OCCCO)ccc2N1C(=O)c1ccc2ccccc2n1 (some centres not stated)	Criterion not met
CO[C@H]1O[C@H](CO)[C@@H](OC(=O)Nc2ccc(Oc3ccccc3)cc2)[C@H](OC(=O)Nc2ccccc2-c2ccccc2)[C@H]1OC(=O)Nc1ccccc1-c1ccccc1	Criterion met
CN(C)CCCC[C@@H]1NC(=O)[C@@H]2C[C@H](C(=O)O)[C@H](c3ccc(O)cc3)N2C1=O	Criterion met

Now for another entry.
Ask: Can CC(=O)NCCCC[C@@H]1NC(=O)[C@@H]2C[C@H](C(=O)NCCCCCCN(C)C)[C@H](c3ccc(O)cc3)N2C1=O be said to have composite z-score at or above 0.7?
Reply: Criterion met

----------
biological target: Torsin-1A-interacting protein 2 (Homo sapiens) (UniProt Q8NFQ8); experiment: LULL1 binders on small-molecule microarray, primary screen, cell lysate, human LULL1 lysate, 635/667 nm fluorescence (AID 1092); conditions: hLULL1 lysate binding, 635 nm fluorescence, higher = more signal;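 note: probe is lysate of COS7 cells overexpressing human LULL1; score merges per-feature 667 nm fluorescence with signal-to-noise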
The entries below are paired with their reported composite z-score.
The response must contain the number and no unit.

Worked set:
CO[C@H]1COC(=O)CC=C[C@@H](C)COC(=O)[C@@H](C)NC(=O)CC=C[C@@H]1C -0.55
[N-]=[N+]=NCc1ccccc1C[C@@]1(C(=O)N2CCOCC2)N=C(c2ccc(OCCCO)cc2)O[C@@H]1c1ccccc1N=[N+]=[N-] 3.16
CCCN1C(=O)[C@@]2(CCS(=O)(=O)c3ccccc3)N=C(c3ccc(OCCCO)cc3)O[C@H]2c2ccccc21 2.8
CCCC=C(CCC)[C@@H](NS(=O)(=O)c1ccc(-c2ccccc2)cc1)c1ccc(C(=O)OC)cc1 1.76
COCCOC(=O)N1C(=O)[C@@]2(c3cc(C#CCC(C(=O)OC)C(=O)OC)ccc31)[C@H](C(=O)N1CCN(c3ncccn3)CC1)[C@H]1C(=O)O[C@H](c3ccccc3)[C@H](c3ccccc3)N1[C@@H]2c1ccc(O)cc1 2.23
CCC(=O)[C@]12O[C@@]3([C@@H]4C(=O)OCC[C@@H]41)N(CC)C(C)=C(C(=O)OC)[C@@H](c1ccccc1)N3C2=O 0.155

Now consider the entry below.
Ask: Record NC(=O)NCC#Cc1ccc2c(c1)[C@]1(C(=O)N2)[C@H](C(=O)N2CCCCCCC2)[C@H]2C(=O)O[C@H](c3ccccc3)[C@H](c3ccccc3)N2[C@@H]1c1ccccc1OCCO : what is its composite z-score with Torsin-1A-interacting protein 2 (Homo sapiens) (UniProt Q8NFQ8)?
Reply: 4.33

----------
test: modulators of HCV replicon luciferase signal, primary screen, HCV replication inhibitor project, Huh7 cells, luciferase reporter (AID 1109); settings: 48 h, higher = more signal;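 note: huh7 hepatoma cells harbouring a luciferase neomycin HCV replicon reporter; luciferase luminescence as measure of HCV replicon replication; test concentration not given here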
Binary call on z-score: condition met from -0.6 upward, condition not met beneath that.

Molecule	Class label
CC(=O)NCCCC[C@@H]1NC(=O)[C@@H]2C[C@H](C(=O)NCc3ccc(F)cc3)[C@H](c3cccc(OCCO)c3)N2C1=O	condition met
CCOC(=O)C[C@H]1[C@H](OC(=O)Cc2ccc3c(c2)OCO3)[C@@H](NC(=O)CC(C)C)c2cc(OCCCO)ccc2N1C(=O)c1ccccc1	condition met
C[N+](C)(C)CCCC[C@@H]1NC(=O)[C@H]2C[C@@H](C(=O)NCc3ccc(F)cc3)[C@@H](c3cccc(OCCO)c3)N2C1=O	condition met

Ask: Can CC(C)=C1C(=O)C(c2ccccc2)=C2CN3C(=O)N(CCc4ccccc4)C(=O)[C@]3(Cc3ccccc3)[C@H]21 be said to have z-score at or above -0.6?
Reply: condition met

Ask: Answer whether z-score of C=CCNC(=O)[C@H]1[C@@H]2C(=O)O[C@@H](c3ccccc3)[C@@H](c3ccccc3)N2[C@@H](c2ccccc2OCCO)[C@]12C(=O)N(C(=O)OCCOC)c1ccc(C#CCNC(N)=O)cc12 is greater than or equal to -0.6.
Reply: condition not met

Ask: Is reported z-score greater than or equal to -0.6 here: CCOC(=O)C[C@H]1[C@H](OC(=O)c2ccccc2-c2ccccc2)[C@@H](NC(=O)c2ccc(-c3ccccc3)cc2)c2cc(OCCCO)ccc2N1C(=O)Cc1ccc(OC)cc1
Reply: condition not met

Ask: Determine whether measured z-score meets or exceeds -0.6 for [N-]=[N+]=NCc1ccccc1C[C@@]1(C(=O)N2CCOCC2)N=C(c2ccc(OCCCO)cc2)O[C@@H]1c1ccccc1N=[N+]=[N-]
Reply: condition not met

Ask: Reported z-score at or above -0.6? COc1cc([C@@H]2N[C@H](C(=O)O)Cc3c2[nH]c2ccccc32)cc(OC)c1OC
Reply: condition met

Ask: Determine whether this molecule has z-score no lower than -0.6: CCOC(=O)C[C@H]1[C@H](OC(=O)c2cc3ccccc3oc2=O)[C@@H](NC(=O)c2ccc3ccccc3c2)c2cc(OCCCO)ccc2N1C(=O)c1ccc2ccccc2n1
Reply: condition not met

Ask: Could you tell me if the measured z-score of Cc1ccc([C@@H]2CC=C(C(=O)O)[C@H](c3ccccc3)N2S(=O)(=O)c2ccc(C)cc2)cc1 reaches -0.6 or more?
Reply: condition met

Ask: Assess whether reported z-score for CC1CC/C=C\[C@H]2OC34C=CCN(Cn5nnc6ccccc65)C(=O)[C@H]3N(C(C)CO)C(=O)[C@@H]4C2C(=O)O1 (stereo partly drawn) sits at -0.6 or higher.
Reply: condition met

Ask: Does z-score meet or surpass -0.6 for CC(C)[Si](OCC[C@H]1O[C@]2(C(=O)N(Cc3ccccc3)c3ccccc32)[C@@H](C)[C@@H]1[Si](C)(C)O)(C(C)C)C(C)C ?
Reply: condition not met

----------
Below: a set of entries, each annotated with reported composite z-score.
biological target: Dickkopf-related protein 1 (Homo sapiens); assay: DKK1 binders on small-molecule microarrays, primary screen, biochemical, small-molecule microarray, 635 nm fluorescence scan (AID 1106); details: DKK1 binding, higher = more signal;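 note: score merges emission near 667 nm with signal to noise over three replicate slides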
Hey, just send me the number, nothing else.

Compound	Experimental target	composite z-score
COCCOC(=O)N1C(=O)[C@@]2(c3cc(C#CCNC(N)=O)ccc31)[C@H](c1ccc(OCCO)cc1)N1[C@H](c3ccccc3)[C@H](c3ccccc3)OC(=O)[C@H]1[C@@H]2C(=O)N1CCCCCCC1	Dickkopf-related protein 1 (Homo sapiens)	0.199
CCCC=C(CCC)[C@@H](NS(=O)(=O)c1ccc(C(F)(F)F)cc1)c1ccc(-c2ccccc2)cc1	Dickkopf-related protein 1 (Homo sapiens)	-0.112
CCN1C(C)=C(C(=O)OC)[C@@H](c2ccccc2)N2C(=O)[C@](O)(C(=O)OC)[C@@H](c3ccccc3)C(C(=O)c3ccccc3)=C12	Dickkopf-related protein 1 (Homo sapiens)	0.812
C=C(CCCC)/C(=C/C[C@@H](OC(=O)c1ccncc1)c1cccc(OCCO)c1)c1cc(C(=O)OC)ccc1OC	Dickkopf-related protein 1 (Homo sapiens)	0.438

Now look at this one.
Ask: Could you share which composite z-score value was measured for COc1ccc(NN2C(C(O)c3cc(OC)c(OC)c(OC)c3)C=CC3C(=O)N(C4CCCCC4)C(=O)C32)cc1 (stereo not drawn) ?
Reply: -0.61

----------
# Lookup of reported z-score keyed by entry
experiment: HepG2 liver cancer cell viability effects, profiling panel, resazurin fluorescence, 24 h, PK04 Diversity Set (AID 1172); conditions: higher = more signal; note: test concentration not given here
Keep it simple and answer with nothing but the number.

Sample answers from the record:
Compound	z-score
O=C1OCCC/C=C\[C@H]2OC34C=CCN(CCN5CCOCC5)C(=O)[C@H]3N(CCCCCO)C(=O)[C@@H]4C12 (stereo partly specified)	-0.567
CCOC(=O)C1=CCC(c2cccc3ccccc23)N(S(=O)(=O)c2ccc(C)cc2)C1 (stereo unspecified)	-0.739
COc1cc(Cc2cc3c(c(CCc4ccccc4)n2)[Si](C(C)C)(C(C)C)OC3)cc(OC)c1OC	1.47

Ask: If you can, please state the reported z-score value of C=C(CCCC)/C(=C/C[C@H](OC(=O)c1ccncc1)c1cccc(OCCO)c1)c1cc(C(=O)OC)ccc1OC .
Reply: 1.06

Ask: Which value of z-score has been reported for COc1ccc(NN2C(C(O)c3cc(OC)c(OC)c(OC)c3)C=CC3C(=O)N(C4CCCCC4)C(=O)C32)cc1 (stereo unspecified) in the records?
Reply: -0.665

Ask: Which z-score value is on record for O=C(N1CCCCC1)[C@@]1(CCS(=O)(=O)c2ccccc2)N=C(c2ccc(OCCCO)cc2)O[C@H]1c1ccccc1 ?
Reply: 0.233

Ask: I'd like to know its z-score. The compound in question is O=C(NCc1ccccc1)[C@@]1(Cc2ccccc2)COC(c2ccc(OCCCO)cc2)=N1
Reply: -2.41

Ask: Quick one: z-score for COc1cccc([C@H]2N[C@H](C(=O)O)CC[C@@H]2C)c1 ?
Reply: -0.104

Ask: Quick one: z-score of CCCCO[C@H]1C[C@H]2C(Br)=C[C@@]1(CO)C(=O)[C@]21CO1 ?
Reply: 1.24

Ask: Which z-score value is on record for CCN1C(C)=C(C(=O)OC)[C@@H](c2ccccc2)N2C(=O)[C@@]3(C(=O)OC)O[C@@]12[C@@H]1C(=O)CCC[C@@H]13 ?
Reply: 0.584

Ask: Consider the compound shown here: N#Cc1ccc(NN2C(C(O)c3ccc(I)cc3)C=CC3C(=O)N(c4ccccc4)C(=O)C32)cc1 (stereo unspecified) What is its recorded z-score?
Reply: -1.59

Ask: Could you tell me which z-score is on file for C=CC[C@@]1(C(=O)NCC(O)CO)N=C(c2ccc(OCCCO)cc2)O[C@@H]1c1ccccc1CN=[N+]=[N-] (stereo partly specified) ?
Reply: -0.192

Ask: Looking for the measured z-score of CC[C@H]1C2=C3C(CC[C@H]4C(OC)OC[C@](C)([C@@H]34)N(C(=O)OC(C)(C)C)C2)C(CO)C1CO (stereo partly specified) , can you help?
Reply: -0.453

Ask: For Cc1ccc(S[C@]2(C(=O)NC(C)C)CC(=O)N(Cc3cc(C(F)(F)F)cc(C(F)(F)F)c3)[C@@H]2c2ccc(CO)cc2I)cc1 , what is its reported z-score?
Reply: 0.53

Ask: Find the recorded z-score belonging to CO[C@]12C=C(Br)[C@@H](C[C@@H]1c1ccccc1)[C@@]1(CO1)C2=O and report it.
Reply: 0.418

Ask: Fill in: z-score of CCOC(=O)C1=CC[C@@H](c2ccccc2)N(S(=O)(=O)c2ccc(C)cc2)[C@H]1C is ___
Reply: 0.302

Ask: For the compound shown here, C=CC[C@]1(C(=O)O)N=C(c2ccc(OCCCO)cc2)O[C@H]1c1ccccc1 , give the reported z-score.
Reply: 0.734

Ask: // returns reported z-score for input C[C@@H]1NC(=O)[C@H](Cc2ccccc2)NC(=O)[C@@]23C(=O)N[C@@H](Cc4ccccc4)C2[C@H](C)[C@@]2(C)O[C@H]2C3/C=C/C/C=C\CNC1=O (stereo partly specified)
Reply: -0.51

Ask: Entry O=C1O[C@@H](c2ccccc2)[C@@H](c2ccccc2)N2[C@@H](c3ccc(OCCO)cc3)[C@]3(C(=O)Nc4ccc(C#CCCO)cc43)[C@@H](C(=O)N3CCN(c4ncccn4)CC3)[C@H]12 has what z-score?
Reply: 1.26

Ask: Please give the measured z-score for this compound: CC(C)(C)OC(=O)CC[C@]1(C(=O)N2CCCCC2)N=C(c2ccc(OCCCO)cc2)O[C@H]1c1ccccc1
Reply: -0.302

Ask: Look at this compound and give its reported z-score. COc1ccc(C(=O)Nc2ccc(CN3C(=O)[C@]4(O[C@H](CCn5cc(CCO)nn5)[C@@H]([Si](C)(C)c5ccc(OC)cc5)[C@@H]4C)c4ccccc43)cc2)cc1
Reply: -2.97

Ask: Given the compound O=C/C=C/c1ccccc1Cl , what is its reported z-score?
Reply: 0.965

Ask: Field request: z-score | item: CC(=O)NCCCC[C@@H]1NC(=O)[C@@H]2C[C@H](C(=O)NCCCCCNC(=O)CS)[C@H](c3ccc(O)cc3)N2C1=O
Reply: 1.25

Ask: So what does the record say about z-score for COCCOC(=O)N1C(=O)[C@@]2(c3cc(C#CCC(C(=O)OC)C(=O)OC)ccc31)[C@H](c1ccccc1OCCO)N1[C@H](c3ccccc3)[C@H](c3ccccc3)OC(=O)[C@H]1[C@@H]2C(=O)N1CCCCCCC1 ?
Reply: 1.16
